Test: lethalities in mice after a single intraperitoneal dose
Conditions: mouse, in vivo, ip, single dose intraperitoneally, lethalities determined after five days, doses 1-1,000 mg/kg
OBSERVABLE: LD50 at 120 h

LD50 at 120 h reading for c1ccc2cc(C3(Cn4ccnc4)OCCO3)ccc2c1 : 100 to 300 mg/kg

LD50 at 120 h reading for O=C(Cn1ccnc1)c1ccc2ccccc2c1 : 100 to 300 mg/kg

LD50 at 120 h reading for OC(Cn1ccnc1)c1cccc2ccccc12 (centres unmarked) : 300 to 1000 mg/kg

LD50 at 120 h reading for OC(Cn1ccnc1)c1ccc2ccccc2c1 (centres unmarked) : 300 to 1000 mg/kg

LD50 at 120 h reading for O=C(Cn1ccnc1)c1cccc2ccccc12 : 100 to 300 mg/kg
